Could you please report measured RP-LC retention time for the items listed next?
- assay.summary: gradient 5% acetonitrile 3 min, to 50% in 2 min, to 85% in 15 min, held 3 min, 100 µL/min
- experimental.setup: column: Zorbax Extend-C18 2.1 x 50 mm; eluents: water / acetonitrile, 0.1% formic acid
Give bare numbers, in s.

Task item: What value of RP-LC retention time has been reported for the following compound? `CCOc1cccc(-c2noc(Cn3cnc4c(cnn4-c4ccc(OC)cc4)c3=O)n2)c1`
Reply: 1090

Task item: What value of RP-LC retention time has been reported for the following compound? CC(=O)N1c2ccccc2CC1c1nc(C2CC2)no1 (stereo not given)
Reply: 820

Task item: What value of RP-LC retention time has been reported for the following compound? `CCc1nnc([C@@H]2CC(F)(F)CN2C(=O)c2coc(C)n2)o1`
Reply: 678

Task item: What value of RP-LC retention time has been reported for the following compound? O=C(NCC1CCCO1)c1cc(S(=O)(=O)N2CCCCCC2)ccc1Cl (stereo not given)
Reply: 842

# next compound below
Task item: What value of RP-LC retention time has been reported for the following compound? `Cc1ccsc1CN1CC(Oc2ccc(-c3noc(-c4ccncc4)n3)cc2)C1`
Reply: 715

###

- assay.summary: gradient 5% acetonitrile 3 min, to 50% in 2 min, to 85% in 15 min, held 3 min, 100 µL/min
- experimental.setup: column: Zorbax Extend-C18 2.1 x 50 mm; eluents: water / acetonitrile, 0.1% formic acid
property.measured: RP-LC retention time (s)
Give bare numbers, in s.

Field: example entries. Status: answers known.
Task item: What value of RP-LC retention time has been reported for the following compound? `CC(C)n1c(N2CCN(C(=O)COc3ccc(F)cc3)CC2)cc(=O)n(C(C)C)c1=O`
Reply: 904

Task item: What value of RP-LC retention time has been reported for the following compound? `CN(CCCNC(=O)Cn1c(=O)c2cccn2c2ccc(F)cc21)C1CCCCC1`
Reply: 635

Task item: What value of RP-LC retention time has been reported for the following compound? `Cc1c(Cl)cccc1NC(=O)C1CCN(S(=O)(=O)c2ccc3c(c2)NC(=O)CO3)CC1`
Reply: 778

Task item: What value of RP-LC retention time has been reported for the following compound? CC1=C(C(=O)Nc2ccc(Cl)cc2C(=O)NC(C)c2ccccc2)SCCO1 (centres undefined)
Reply: 1190

Dear reader, for each entry below, please note its RP-LC retention time.
1. Cc1cccn2cc(C(=O)NCc3cc(F)cc(F)c3)nc12
2. Cc1nc(-c2ccc3c(c2)n(CC(=O)NC2CCCCC2)c(=O)n3C(C)C)no1
3. O=C(CSc1nc2scc(-c3ccccc3)c2c(=O)[nH]1)c1ccccc1

Reply:
[668, 857, 936]

Dear reader, for each entry below, please note its RP-LC retention time.
1. O=C(CCC1CCCC1)NCCC1CCN(C(=O)Nc2ccccc2)CC1
2. Cc1ccc2nc(-c3ccccc3F)c(Nc3ccc(Cl)cc3)n2c1
3. COCc1cn(C2CN(C(=O)c3ccc(OC)c(F)c3)C2)nn1
4. CN(C)C(CNC(=O)NCc1cccs1)c1cn(C)c2ccccc12 (centres undefined)
5. COc1cccc(NS(=O)(=O)c2cc3n(c2)CCN(CC(C)C)C3=O)c1

Reply:
1: 876; 2: 754; 3: 649; 4: 586; 5: 784

Dear reader, for each entry below, please note its RP-LC retention time.
1. Cn1cccc1-c1noc(C2CCN(C(=O)c3ccoc3)C2)n1 (centres undefined)
2. COCCN1C(=O)CCc2cc(NS(=O)(=O)c3ccc(C)cc3C)ccc21
3. Cc1nc(C2CCOCC2)n(C2CCN(S(=O)(=O)c3cc(F)cc(F)c3)C2)n1 (centres undefined)
4. COC(=O)c1c(NCc2ccc3c(c2)OCO3)c2ccc(F)cc2[nH]c1=O
5. COc1ccc(-c2ccc3nc(N4CCC(C(=O)NCCN(C)C)CC4)sc3n2)cc1
6. CCc1nnc([C@@H]2CC(F)(F)CN2C(=O)c2ocnc2C)o1
7. COc1ccc(OC)c(CNC(=O)c2c(N3CCCC3=O)c3cc(F)ccc3n2C)c1
8. CCCN1C(=O)COc2ccc(-c3csc(NC(=O)c4c(OC)cccc4OC)n3)cc21

Reply:
1. 784
2. 816
3. 740
4. 734
5. 665
6. 644
7. 904
8. 944

###

- assay.summary: gradient 5% acetonitrile 3 min, to 50% in 2 min, to 85% in 15 min, held 3 min, 100 µL/min
- experimental.setup: column: Zorbax Extend-C18 2.1 x 50 mm; eluents: water / acetonitrile, 0.1% formic acid
Could you please report measured RP-LC retention time for the items listed next?
Answers are plain numbers, in s.

Field: example entries. Status: answers known.
Task item: What value of RP-LC retention time has been reported for the following molecule? `O=S(=O)(c1ccc(-c2ccno2)s1)N1CCN(c2ccccn2)CC1`
Reply: 680

Task item: What value of RP-LC retention time has been reported for the following molecule? `CCCc1noc(-c2ccc3nnc(CC(=O)NC4CCCC4)n3c2)n1`
Reply: 922

Task item: What value of RP-LC retention time has been reported for the following molecule? O=C(C1CCCN(c2ncnc3c2nc2n3CCCCC2)C1)N1CCCc2ccccc21 (centres undefined)
Reply: 888

Task item: What value of RP-LC retention time has been reported for the following molecule? CCOC(=O)C1=C(CN2CCC(c3ccccc3)C2)NC(=O)NC1c1cccc(OC)c1OC (centres undefined)
Reply: 687

Task item: What value of RP-LC retention time has been reported for the following molecule? `Cc1cc2c(c(=O)n(-c3ccccc3)c(=O)n2CC(=O)Nc2ccccc2C(F)(F)F)n1C`
Reply: 904

Task item: What value of RP-LC retention time has been reported for the following molecule? `Cc1ccc2nc(-c3ccccc3F)cc(C(N)=O)c2c1`
Reply: 778

Task item: What value of RP-LC retention time has been reported for the following molecule? O=C(Nc1ccc(F)cc1F)C1CCCN(S(=O)(=O)c2c[nH]c(C(=O)N3CCCC3)c2)C1 (centres undefined)
Reply: 792

Task item: What value of RP-LC retention time has been reported for the following molecule? `COc1ccc(-c2c(C)noc2NC(C)=O)cc1S(=O)(=O)N1CC=C(c2ccccc2)CC1`
Reply: 879

# next molecule below
Task item: What value of RP-LC retention time has been reported for the following molecule? Cc1nc(-c2ccccc2)sc1C(=O)N1CCC(C(C)C(=O)N2CCOCC2)CC1 (centres undefined)
Reply: 728

###

- assay.summary: gradient 5% acetonitrile 3 min, to 50% in 2 min, to 85% in 15 min, held 3 min, 100 µL/min
- experimental.setup: column: Zorbax Extend-C18 2.1 x 50 mm; eluents: water / acetonitrile, 0.1% formic acid
Entries whose RP-LC retention time is below 700 s take true; entries at or above 700 s take false.

Example entries and their recorded answers appear below.
Task item: Identify whether the compound Cc1cc(F)ccc1NC(=O)Cn1cc2c(n1)CCC(C)C2 (stereo not given) records RP-LC retention time below 700 s.
Reply: false

Task item: Identify whether the compound Cc1ccc(CNC(=O)C2CCN(S(C)(=O)=O)c3cc(C)ccc3O2)cc1 (stereo not given) records RP-LC retention time below 700 s.
Reply: false

Task item: Identify whether the compound `CCC(=O)Nc1ccc(C2(C(=O)NCCC(C)C)CCCCC2)cc1` records RP-LC retention time below 700 s.
Reply: false

Task item: Identify whether the compound Cc1ccc(NC(=O)CN2C(=O)C3CCCCN3c3ccc(S(=O)(=O)N4CCCCC4)cc32)cc1 (stereo not given) records RP-LC retention time below 700 s.
Reply: false

Task item: Identify whether the compound Cc1nnc(N2CCCC(C(=O)NCCc3cccs3)C2)c2nn(-c3ccc(Cl)cc3)c(C)c12 (stereo not given) records RP-LC retention time below 700 s.
Reply: false

Task item: Identify whether the compound `CCNC(=O)Cc1nnc(-c2ccc(OC)cc2)o1` records RP-LC retention time below 700 s.
Reply: true

Task item: Identify whether the compound `CN1C(=O)Cc2cc(C(=O)NCc3ccccc3Cl)ccc21` records RP-LC retention time below 700 s.
Reply: false

Task item: Identify whether the compound `CN(C)c1cccc(C(=O)Nc2cc(-c3cccnc3)no2)c1` records RP-LC retention time below 700 s.
Reply: false

Task item: Identify whether the compound `Cc1cc(C)n(-c2nc(C)c(C(=O)Nc3ccc(F)cc3)s2)n1` records RP-LC retention time below 700 s.
Reply: false

Task item: Identify whether the compound `NC(=O)C1CCN(C(=O)C2CCN(S(=O)(=O)Cc3ccc(F)cc3)CC2)CC1` records RP-LC retention time below 700 s.
Reply: true

New cases:
Task item: Identify whether the compound `CCOc1ccc(-c2ccc(=O)n(CCc3nc(-c4cccc(F)c4)no3)n2)cc1` records RP-LC retention time below 700 s.
Reply: false

Task item: Identify whether the compound `COc1ccc(-c2ccnc3nc(-c4ccccc4OC)nn23)cc1OC` records RP-LC retention time below 700 s.
Reply: false

Task item: Identify whether the compound `CCc1ccc(NC(=O)c2cc(C(C)C)n3nccc3n2)cc1` records RP-LC retention time below 700 s.
Reply: false

Task item: Identify whether the compound O=C(NCC1CN(c2ccc3c(c2)OCO3)C(=O)O1)c1ccccc1C(F)(F)F (stereo not given) records RP-LC retention time below 700 s.
Reply: false

Task item: Identify whether the compound CCC(=O)N1CCC(Oc2nccnc2N(C)C)C1 (stereo not given) records RP-LC retention time below 700 s.
Reply: true

Task item: Identify whether the compound O=C(c1ccc(Br)o1)N1CCCC(c2nnc(-c3ccccc3)o2)C1 (stereo not given) records RP-LC retention time below 700 s.
Reply: false

Task item: Identify whether the compound `Cc1ccc(NC(=O)Nc2ccc3nc(N4CCN(C)CC4)cc(C)c3c2)cc1Cl` records RP-LC retention time below 700 s.
Reply: true
